System: SNB-75 CNS
test.name: NCI tumour cell line growth inhibition, 48 h
Label true when TGI >= 30 µM; otherwise false.

Query: Check the entry COc1ccc2c(c1)CCN1CCCc3ccccc3C21 (centres undefined) : does TGI equal or exceed 30 µM?
Response: true

Query: Reported TGI at or above 30 µM? OCC(O)C(O)C(O)c1nn(-c2ccccc2)c2nc3cc(Cl)c(Cl)cc3nc12 (centres undefined)
Response: true

Query: Tell me whether TGI is at least 30 µM here: N#C/C(=C\c1c(-c2ccccc2)[nH]c2ccccc12)C(=O)c1ccccc1
Response: true

Query: Hi, just wondering whether Cc1cc(N(CCCNc2ccnc3cc(Cl)ccc23)Cc2ccc3c(c2)OCO3)nc(N2CCCCC2)n1 shows TGI of 30 µM or higher.
Response: false

Query: Item COc1ccc(C2SCC(=O)N2NC(=O)C(C)Oc2ccccc2C)cc1 (centres undefined) with TGI of 30 µM or above?
Response: true

Query: Please indicate if the recorded TGI for Cc1ccc(Nc2cc(C)nc(NCCCNc3ccnc4cc(Cl)ccc34)n2)cc1 meets or exceeds 30 µM.
Response: false

Query: Quick check: does C=C1C(OC/C=C/COC2O[C@@H]3O[C@@]4(C)CC[C@H]5[C@H](C)CC[C@@H](C2=C)[C@@]35OO4)O[C@@H]2O[C@@]3(C)CC[C@H]4[C@H](C)CC[C@@H]1[C@@]24OO3 (some centres undefined) have TGI greater than or equal to 30 µM?
Response: true

Query: Evaluate CC(=O)/C=C1\CC(=O)Nc2ccccc2N1 : TGI at minimum 30 µM?
Response: true

Query: Would you say CCCc1nnc2sc(COc3cc(Cl)c(OCc4nn5c(CCC)nnc5s4)cc3Cl)nn12 shows TGI at minimum 30 µM?
Response: true
